Below, each of the compounds is paired with its reported Ratio value.
test: Selectivity ratio of Kinact/Ki ratio for porcine pancreatic elastase to Kinact/Ki ratio for human leukocyte elastase
Please reply with the number alone, leaving off any unit.

Exercise: # lookup: Ratio of CSc1ccc(OP(=O)(Oc2ccc(SC)cc2)C(NC(=O)[C@@H]2CCCN2C(=O)[C@@H](NC(=O)COc2ccc(OCC(=O)O)cc2)C(C)C)C(C)C)cc1 (mixture of isomers)
Key: 50.8

Exercise: # iterate: CSc1ccc(OP(=O)(Oc2ccc(SC)cc2)[C@@H](NC(=O)[C@@H]2CCCN2C(=O)[C@@H](NC(=O)COc2ccc(OCC(=O)O)cc2)C(C)C)C(C)C)cc1
Key: 60

Exercise: # iterate: CSc1ccc(OP(=O)(Oc2ccc(SC)cc2)C(NC(=O)[C@@H]2CCCN2C(=O)[C@@H](NC(=O)Cn2cc(C)c(=O)n(CC(=O)O)c2=O)C(C)C)C(C)C)cc1 (mixture of isomers)
Key: 8.2

====

experiment: Solubility in 80% human plasma at […] incubated at 37 degC by HPLC; assay type: ADME, cell-free
Result type: solubility (mM)
Express the result in mM but write the number alone.

Some solved entries appear below for comparison.
1) CSc1ccc(OP(=O)(Oc2ccc(SC)cc2)C(NC(=O)[C@@H]2CCCN2C(=O)[C@@H](NC(=O)COc2ccc(OCC(=O)O)cc2)C(C)C)C(C)C)cc1 (mixture of isomers) :: 6.23
2) COc1ccc(C(=O)N[C@H](C(=O)N2CCC[C@H]2C(=O)NC(C(C)C)P(=O)(Oc2ccc(SC)cc2)Oc2ccc(SC)cc2)C(C)C)cc1 (mixture of isomers) :: 0.17
3) CSc1ccc(OP(=O)(Oc2ccc(SC)cc2)C(NC(=O)[C@@H]2CCCN2C(=O)[C@@H](NC(=O)Cn2cc(C)c(=O)n(CC(=O)O)c2=O)C(C)C)C(C)C)cc1 (mixture of isomers) :: 6.11
4) CSc1ccc(OP(=O)(Oc2ccc(SC)cc2)C(NC(=O)[C@@H]2CCCN2C(=O)[C@@H](NC(=O)Cn2ccc(=O)n(CC(=O)O)c2=O)C(C)C)C(C)C)cc1 (mixture of isomers) :: 6.22

Exercise: # lookup: solubility of CSc1ccc(OP(=O)(Oc2ccc(SC)cc2)C(NC(=O)[C@@H]2CCCN2C(=O)[C@@H](NC(=O)OC(C)(C)C)C(C)C)C(C)C)cc1 (mixture of isomers)
Key: 0.36

====

assay: Inhibition of chymotrypsin at 25 uM assessed as Kinact/Ki ratio incubated for 15 mins by spectrofluorometry
Below, each of the compounds is paired with its reported Ratio value.
Express the result in M⁻¹ s⁻¹ but write the number alone.

1) CSc1ccc(OP(=O)(Oc2ccc(SC)cc2)C(CC(C)C)NC(=O)[C@@H]2CCCN2C(=O)[C@@H](NC(=O)OC(C)(C)C)C(C)C)cc1 (mixture of isomers) :: 21900

# next compound below
Exercise: # lookup: Ratio of CCC(NC(=O)[C@@H]1CCCN1C(=O)[C@@H](NC(=O)OC(C)(C)C)C(C)C)P(=O)(Oc1ccc(SC)cc1)Oc1ccc(SC)cc1 (mixture of isomers)
Key: 365

====

target: Neutrophil elastase (Homo sapiens); test: Inhibition of human leukocyte elastase at 25 uM assessed as Kinact/Ki ratio incubated for 15 mins by spectrofluorometry
Result type: Ratio (M⁻¹ s⁻¹)
Express the result in M⁻¹ s⁻¹ but write the number alone.

Some solved entries appear below for comparison.
1. CSc1ccc(OP(=O)(Oc2ccc(SC)cc2)C(NC(=O)[C@@H]2CCCN2C(=O)[C@@H](NC(=O)Cn2cc(C)c(=O)n(CC(=O)O)c2=O)C(C)C)C(C)C)cc1 (mixture of isomers) :: 965000
2. CSc1ccc(OP(=O)(Oc2ccc(SC)cc2)[C@@H](NC(=O)[C@@H]2CCCN2C(=O)[C@@H](NC(=O)Cn2cc(C)c(=O)n(CC(=O)O)c2=O)C(C)C)C(C)C)cc1 :: 1.76e+06
3. CSc1ccc(OP(=O)(Oc2ccc(SC)cc2)C(NC(=O)[C@@H]2CCCN2C(=O)CNC(=O)OC(C)(C)C)C(C)C)cc1 (mixture of isomers) :: 35000

# next compound below
Exercise: For the record CSc1ccc(OP(=O)(Oc2ccc(SC)cc2)C(NC(=O)[C@@H]2CCCN2C(=O)[C@H](CC(C)C)NC(=O)OCc2ccccc2)C(C)C)cc1 (mixture of isomers) , what value of Ratio is listed for Neutrophil elastase (Homo sapiens)?
Key: 86200

====

test: Inhibition of trypsin at 25 uM assessed as Kinact/Ki ratio incubated for 15 mins by spectrofluorometry
Result type: Ratio

1) CSc1ccc(OP(=O)(Oc2ccc(SC)cc2)C(NC(=O)[C@@H]2CCCN2C(=O)[C@@H](NC(=O)Cn2cc(C)c(=O)n(CC(=O)O)c2=O)C(C)C)C(C)C)cc1 (mixture of isomers) :: 140 M⁻¹ s⁻¹
2) COC(=O)c1cccc(OP(=O)(Oc2cccc(C(=O)OC)c2)C(CC(C)C)NC(=O)[C@@H]2CCCN2C(=O)[C@@H](NC(=O)OC(C)(C)C)C(C)C)c1 (stereo partly drawn) :: 2800 M⁻¹ s⁻¹
3) CSc1ccc(OP(=O)(Oc2ccc(SC)cc2)C(NC(=O)[C@@H]2CCCN2C(=O)[C@@H](NC(=O)OC(C)(C)C)C(C)C)C(C)C)cc1 (mixture of isomers) :: < 50 M⁻¹ s⁻¹
4) COc1ccc(OP(=O)(Oc2ccc(OC)cc2)C(CC(C)C)NC(=O)[C@@H]2CCCN2C(=O)[C@@H](NC(=O)OC(C)(C)C)C(C)C)cc1 (mixture of isomers) :: < 50 M⁻¹ s⁻¹

Exercise: # lookup: Ratio of CCC(NC(=O)[C@@H]1CCCN1C(=O)[C@@H](NC(=O)OC(C)(C)C)C(C)C)P(=O)(Oc1ccccc1)Oc1ccccc1 (mixture of isomers)
Key: < 50 M⁻¹ s⁻¹

Exercise: # iterate: CSc1ccc(OP(=O)(Oc2ccc(SC)cc2)[C@@H](NC(=O)[C@@H]2CCCN2C(=O)[C@@H](NC(=O)OC(C)(C)C)C(C)C)C(C)C)cc1
Key: < 50 M⁻¹ s⁻¹

Exercise: # iterate: COc1ccc(OP(=O)(Oc2ccc(OC)cc2)C(NC(=O)[C@@H]2CCCN2C(=O)[C@@H](NC(=O)OC(C)(C)C)C(C)C)C(C)C)cc1 (mixture of isomers)
Key: < 50 M⁻¹ s⁻¹

Exercise: # iterate: CCC(NC(=O)[C@@H]1CCCN1C(=O)[C@@H](NC(=O)OC(C)(C)C)C(C)C)P(=O)(Oc1ccc(C)c(C)c1)Oc1ccc(C)c(C)c1 (mixture of isomers)
Key: < 50 M⁻¹ s⁻¹

====

assay: Chemical stability in pH 7.4 PBS buffer assessed as compound remaining at […] measured after 6 days at 37 degC by HPLC; format: physicochemical; details: read-out: Stability
Result type: remaining at 144 h

Exercise: # lookup: remaining at 144 h of CSc1ccc(OP(=O)(Oc2ccc(SC)cc2)C(NC(=O)[C@@H]2CCCN2C(=O)[C@@H](NC(=O)COc2ccc(OCC(=O)O)cc2)C(C)C)C(C)C)cc1 (mixture of isomers)
Key: > 50%

====

assay: Inhibition of chymotrypsin at 25 uM assessed as Kinact/Ki ratio incubated for 15 mins by spectrofluorometry
Ratio strictly less than 2000 M⁻¹ s⁻¹ = label 1. Otherwise label 0.

Solved cases (10 shown):
1) CSc1ccc(OP(=O)(Oc2ccc(SC)cc2)[C@@H](NC(=O)[C@@H]2CCCN2C(=O)[C@@H](NC(=O)Cn2ccc(=O)n(CC(=O)O)c2=O)C(C)C)C(C)C)cc1 :: label 0
2) CCCC(NC(=O)[C@@H]1CCCN1C(=O)[C@@H](NC(=O)OC(C)(C)C)C(C)C)P(=O)(Oc1ccc(SC)cc1)Oc1ccc(SC)cc1 (mixture of isomers) :: label 0
3) CCC(NC(=O)[C@@H]1CCCN1C(=O)[C@@H](NC(=O)OC(C)(C)C)C(C)C)P(=O)(Oc1ccc(C(C)C)cc1)Oc1ccc(C(C)C)cc1 (mixture of isomers) :: label 1
4) COc1ccc(C(=O)N[C@H](C(=O)N2CCC[C@H]2C(=O)NC(C(C)C)P(=O)(Oc2ccc(SC)cc2)Oc2ccc(SC)cc2)C(C)C)cc1 (mixture of isomers) :: label 1
5) CC(C)C(NC(=O)[C@@H]1CCCN1C(=O)[C@@H](NC(=O)OC(C)(C)C)C(C)C)P(=O)(Oc1ccccc1)Oc1ccccc1 (mixture of isomers) :: label 1
6) CCCCC(NC(=O)[C@@H]1CCCN1C(=O)[C@@H](NC(=O)OC(C)(C)C)C(C)C)P(=O)(Oc1ccccc1)Oc1ccccc1 (mixture of isomers) :: label 1
7) COc1ccc(C(=O)N[C@H](C(=O)N2CCC[C@H]2C(=O)N[C@@H](C(C)C)P(=O)(Oc2ccc(SC)cc2)Oc2ccc(SC)cc2)C(C)C)cc1 :: label 1
8) CSc1ccc(OP(=O)(Oc2ccc(SC)cc2)C(NC(=O)[C@@H]2CCCN2C(=O)CNC(=O)OC(C)(C)C)C(C)C)cc1 (mixture of isomers) :: label 1
9) CCC(NC(=O)[C@@H]1CCCN1C(=O)[C@@H](NC(=O)OC(C)(C)C)C(C)C)P(=O)(Oc1ccc(C)c(C)c1)Oc1ccc(C)c(C)c1 (mixture of isomers) :: label 1
10) CSc1ccc(OP(=O)(Oc2ccc(SC)cc2)C(NC(=O)[C@@H]2CCCN2C(=O)[C@H](CC(C)C)NC(=O)OCc2ccccc2)C(C)C)cc1 (mixture of isomers) :: label 1

Exercise: Quick check: does CSc1ccc(OP(=O)(Oc2ccc(SC)cc2)[C@@H](NC(=O)[C@@H]2CCCN2C(=O)[C@@H](NC(=O)COc2ccc(OCC(=O)O)cc2)C(C)C)C(C)C)cc1 have Ratio under 2000 M⁻¹ s⁻¹?
Key: label 0

Exercise: # iterate: CCCC(NC(=O)[C@@H]1CCCN1C(=O)[C@@H](NC(=O)OC(C)(C)C)C(C)C)P(=O)(Oc1ccccc1)Oc1ccccc1 (mixture of isomers)
Key: label 1

Exercise: # iterate: CSc1ccc(OP(=O)(Oc2ccc(SC)cc2)[C@H](NC(=O)[C@@H]2CCCN2C(=O)[C@@H](NC(=O)OC(C)(C)C)C(C)C)C(C)C)cc1
Key: label 1

Exercise: # iterate: CC(C)CC(NC(=O)[C@@H]1CCCN1C(=O)[C@@H](NC(=O)OC(C)(C)C)C(C)C)P(=O)(Oc1ccc(Cl)cc1)Oc1ccc(Cl)cc1 (mixture of isomers)
Key: label 0

Data credit: ChEMBL document CHEMBL2163241
